Species on record: Rattus norvegicus
assayInfo: Open TG-GATES - Regimen: Single
Type: toxicity, organism-based, Sprague-Dawley
Design: regimen Single, gender Male, age 6 weeks
conditionParameters: in vivo, po, 0 mg/kg, 6 h, tissue Plasma, route gavage, dose level Control
Criterion: LDH meeting or surpassing 70 IU/L. Met: 1. Not met: -1.

Example results:
[
  {
    "molecule": "Nc1ccc(Cc2ccc(N)cc2)cc1",
    "categoryLabel": -1
  },
  {
    "molecule": "CN(C)CCCN1c2ccccc2Sc2ccc(Cl)cc21",
    "categoryLabel": 1
  },
  {
    "molecule": "C=C[C@H]1C[N@@]2CC[C@H]1C[C@@H]2[C@@H](O)c1ccnc2ccc(OC)cc12",
    "categoryLabel": 1
  },
  {
    "molecule": "CCO",
    "categoryLabel": -1
  },
  {
    "molecule": "CC(S)C(=O)NCC(=O)O (stereo not drawn)",
    "categoryLabel": 1
  }
]

(Q) Does the reported LDH for COc1ccc([C@@H]2Sc3ccccc3N(CCN(C)C)C(=O)[C@@H]2OC(C)=O)cc1 fall at or above the 70 IU/L mark?
(A) -1

(Q) Does the reported LDH for CN(C/C=C/C#CC(C)(C)C)Cc1cccc2ccccc12 fall at or above the 70 IU/L mark?
(A) 1

(Q) Does the reported LDH for CN(CCOc1ccc(CC2SC(=O)NC2=O)cc1)c1ccccn1.O=C(O)/C=C\C(=O)O (stereo not drawn) [ROSIGLITAZONE MALEATE] fall at or above the 70 IU/L mark?
(A) 1

====

Organism: Rattus norvegicus
assayInfo: Open TG-GATES - Regimen: Daily Repeat
Assay type: toxicity, organism-based, Sprague-Dawley
Design: regimen Daily Repeat, gender Male, age 6 weeks
conditionParameters: in vivo, po, 0 mg/kg, […], tissue Blood, route gavage, dose level Control, time 7 day
# key: entry, value: MCHC
State the answer as a number, implicitly in %.

In the examples that follow, each entry is paired with its recorded MCHC.
[
  {
    "molecule": "CN(CCOc1ccc(CC2SC(=O)NC2=O)cc1)c1ccccn1.O=C(O)/C=C\\C(=O)O (stereo not drawn) [ROSIGLITAZONE MALEATE]",
    "MCHC (%)": 33
  },
  {
    "molecule": "CCN(CC)C(=S)SSC(=S)N(CC)CC",
    "MCHC (%)": 32.6
  },
  {
    "molecule": "Nc1ccc(Cc2ccc(N)cc2)cc1",
    "MCHC (%)": 34.5
  },
  {
    "molecule": "NS(=O)(=O)c1cc(C(=O)O)c(NCc2ccco2)cc1Cl [FUROSEMIDE]",
    "MCHC (%)": 34.5
  },
  {
    "molecule": "CCCCC1C(=O)N(c2ccccc2)N(c2ccccc2)C1=O [PHENYLBUTAZONE]",
    "MCHC (%)": 33.1
  },
  {
    "molecule": "CCCCNC(=O)NS(=O)(=O)c1ccc(C)cc1 [TOLBUTAMIDE]",
    "MCHC (%)": 33.3
  },
  {
    "molecule": "CC(S)C(=O)NCC(=O)O (stereo not drawn) [TIOPRONIN]",
    "MCHC (%)": 33.9
  },
  {
    "molecule": "O=C(O)c1ccccc1Nc1ccccc1 [FENAMIC ACID]",
    "MCHC (%)": 33.5
  },
  {
    "molecule": "O=c1ccc2ccccc2o1 [COUMARIN]",
    "MCHC (%)": 33.2
  },
  {
    "molecule": "CCO [ALCOHOL]",
    "MCHC (%)": 33.7
  }
]

(Q) MCHC for COc1ccc([C@@H]2Sc3ccccc3N(CCN(C)C)C(=O)[C@@H]2OC(C)=O)cc1 [DILTIAZEM] ?
(A) 33.1

(Q) MCHC for CC(=O)[C@@]1(O)CC[C@H]2[C@@H]3C=C(Cl)C4=CC(=O)CC[C@]4(C)[C@H]3CC[C@@]21C [CHLORMADINONE] ?
(A) 33.1

(Q) MCHC for CN(C/C=C/C#CC(C)(C)C)Cc1cccc2ccccc12 [TERBINAFINE] ?
(A) 33.8
